Ref: the supplement of paper PMC12632987

TARGET OR SYSTEM: T1, USP38, Q8NB14
T1 chain: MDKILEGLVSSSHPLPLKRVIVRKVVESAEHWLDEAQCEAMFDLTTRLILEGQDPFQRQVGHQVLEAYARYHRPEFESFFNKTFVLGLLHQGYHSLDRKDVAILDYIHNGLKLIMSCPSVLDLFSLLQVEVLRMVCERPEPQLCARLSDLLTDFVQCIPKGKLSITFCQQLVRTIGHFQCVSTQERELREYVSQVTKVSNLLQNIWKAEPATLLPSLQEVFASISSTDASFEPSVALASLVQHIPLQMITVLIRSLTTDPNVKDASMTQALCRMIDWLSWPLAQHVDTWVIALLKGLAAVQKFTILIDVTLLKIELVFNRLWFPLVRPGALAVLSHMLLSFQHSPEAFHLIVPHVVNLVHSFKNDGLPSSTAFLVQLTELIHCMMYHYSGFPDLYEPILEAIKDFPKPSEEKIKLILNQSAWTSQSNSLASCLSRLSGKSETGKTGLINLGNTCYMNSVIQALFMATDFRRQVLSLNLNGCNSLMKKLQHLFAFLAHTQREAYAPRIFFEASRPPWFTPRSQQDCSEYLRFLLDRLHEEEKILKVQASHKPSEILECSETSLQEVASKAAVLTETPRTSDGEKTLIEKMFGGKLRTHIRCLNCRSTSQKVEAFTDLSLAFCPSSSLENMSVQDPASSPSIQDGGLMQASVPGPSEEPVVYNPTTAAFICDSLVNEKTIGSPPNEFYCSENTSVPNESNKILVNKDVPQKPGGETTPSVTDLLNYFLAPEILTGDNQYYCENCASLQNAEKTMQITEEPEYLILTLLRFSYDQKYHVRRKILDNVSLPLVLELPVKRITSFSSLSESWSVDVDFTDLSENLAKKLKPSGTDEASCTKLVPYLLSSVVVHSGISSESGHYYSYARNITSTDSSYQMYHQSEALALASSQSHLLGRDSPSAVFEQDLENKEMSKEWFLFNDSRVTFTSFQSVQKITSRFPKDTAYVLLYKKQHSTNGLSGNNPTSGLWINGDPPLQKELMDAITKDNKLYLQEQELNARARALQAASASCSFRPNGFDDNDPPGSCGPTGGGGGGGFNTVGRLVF
ASSAY DETAILS: median log2 fold change of GCK-ALFA target abundance (FLAG IP / Myc IP barcode read proportion) (log2 ratio); each designed protein is fused to an ALFA-tag nanobody in HEK293 cells to bring the named protein to FLAG-tagged glucokinase (GCK); Myc marks an untargeted standard; higher = target protein stabilised (more abundant)
MEASUREMENT PARAMETERS: target protein: 3xFLAG-MCP-GCK-ALFA reporter; HEK293 landing pad (RPLP)
Collected median log2 fold change values appear next to each entry.
Just the number, please, no unit after it.

Worked examples, 3 binders total:
BINDER | EXPERIMENTAL READOUT | RECORDED RESULT
usp_38_diff_out_14_54_128 (protein) DEEIERLLEEARKKLEELKKLKEELKKLVKAGASMEEIFAAYDKAADAAAAAGEAIRRLRKLSTDPEVKEEARKLEEEVNKLLDEVTELVTEALERAAER | median log2 fold change | -0.492
usp_38_diff_out_18_28_411 (protein) KKEEIQEKIKKAEEKLDKLIDKYVEISTKAFLKYHENPESKELLEAVDKLADELGKAAQHVNLMRENKDDEEKVEKELKEFEEHSKKAEELLKKVEELIK | median log2 fold change | -0.206
usp_38_diff_out_2_113_475 (protein) DPEVREEIREAALSNLLSSLEELLKIAKENRRSEETMRMMVRGVIEAALELIRELNLPEEDVKKILELLEEVRKALAEKNPELAKLAQEGIEELRKAAEE | median log2 fold change | 0.205

Asked: Returns the measured median log2 fold change for the input binder. Input: usp_38_diff_out_2_35_493 (protein) SMEERREREERLKEIGARIDEAHELTREALELLAEIDAPQERFDRLFATYDAAMRALTAEARAVREGAPQEEIDRLRAEAEAALAELKALLAEARKLAAE
Given back: -0.077
